# MEASURED_TARGET: HGFR (Homo sapiens, UniProt P08581)
# Construct: purchased Upstate 14-526
# Sequence (P08581 974-1390 limits assumed): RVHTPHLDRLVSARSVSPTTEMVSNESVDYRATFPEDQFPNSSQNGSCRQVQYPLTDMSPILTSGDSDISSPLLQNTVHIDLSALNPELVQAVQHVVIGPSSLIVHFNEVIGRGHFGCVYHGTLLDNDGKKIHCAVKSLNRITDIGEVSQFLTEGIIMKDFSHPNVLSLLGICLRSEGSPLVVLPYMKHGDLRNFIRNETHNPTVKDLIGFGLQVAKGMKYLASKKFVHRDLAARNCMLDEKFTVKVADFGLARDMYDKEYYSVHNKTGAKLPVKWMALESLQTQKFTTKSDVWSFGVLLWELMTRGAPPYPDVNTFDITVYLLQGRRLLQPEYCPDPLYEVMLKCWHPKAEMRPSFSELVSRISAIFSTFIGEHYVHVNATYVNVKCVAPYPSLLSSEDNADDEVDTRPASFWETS
# TEST: HGFR continuous-coupled spectrophotometric assay
# Assay type: biochemical
# MEASUREMENT_CONTEXT: Table 6; percent c-MET inhibition at 1 μM; read-out: % inhibition
Short version: inhibition at 1 µM at least 30% is yes (1), less is no (0).

Ask: Determine whether this molecule has inhibition at 1 µM no lower than 30%: Nc1ncc(C(=O)N2CCCC(C(=O)N3CCOCC3)C2)cc1OCc1c(Cl)cccc1Cl (stereo not shown)
Reply: no (0)

Ask: I'd appreciate it if you could say whether COc1cc(CCNC(=O)c2cnc(N)c(OCc3c(Cl)cccc3Cl)c2)ccc1O has inhibition at 1 µM at least equal to 30%.
Reply: yes (1)

Ask: Given Nc1ncc(C(=O)N2CCCCC2CCO)cc1OCc1c(Cl)cccc1Cl (stereo not shown) , state whether its inhibition at 1 µM is at least 30%.
Reply: yes (1)

Ask: Entry CC(C)OCCNC(=O)c1cnc(N)c(OCc2c(Cl)cccc2Cl)c1 : is its inhibition at 1 µM no less than 30%?
Reply: yes (1)

Ask: Is reported inhibition at 1 µM greater than or equal to 30% here: CCC(CC)CN1CCC2(CC1)CC(NC(=O)c1cnc(N)c(OCc3c(Cl)cccc3Cl)c1)CO2 (stereo not shown)
Reply: yes (1)

Ask: For this molecule, is measured inhibition at 1 µM 30% or higher? Cc1ccc(N2CCN(CCCCNC(=O)c3cnc(N)c(OCc4c(Cl)cccc4Cl)c3)CC2)cc1
Reply: no (0)

Ask: Quick check: does Nc1ncc(C(=O)NC2CCSC2=O)cc1OCc1c(Cl)cccc1Cl (stereo not shown) have inhibition at 1 µM greater than or equal to 30%?
Reply: yes (1)

Ask: Item NC(=O)C1CCN(C(=O)c2cnc(N)c(OCc3c(Cl)cccc3Cl)c2)CC1 with inhibition at 1 µM of 30% or above?
Reply: no (0)

Ask: Given the entry CCN1CCCC(NC(=O)c2cnc(N)c(OCc3c(Cl)cccc3Cl)c2)C1 (stereo not shown) , answer whether its inhibition at 1 µM meets or surpasses 30%.
Reply: no (0)
